# PROTOCOL NOTES: High Content Assay for Compounds that inhibit the Assembly of the Perinucleolar Compartment: PC3M Cytotoxicity
# EXPERIMENTAL CONTEXT: PC3M cells, ATPLite luminescence viability, 24 h; series mostly up to 46.1 µM
# Description: High Content Assay for Compounds that inhibit the Assembly of the Perinucleolar Compartment NIH Chemical Genomics Center [NCGC] NIH Molecular Libraries Probe Centers Network [MLPCN] Assay Submitter (PI): Sui Huang, Northwestern University, Feinberg School of Medicine, Cell and Molecular Biology, Chicago, Illinois. […] 5. Luminescencent signal was detected on a Viewlux CCD based imager (PerkinElmer) with a clear filter and a 30 second integration time. […]
Inconclusive results are not listed. Calls of active or inactive are those of the source. Calls follow the shape of the dose curve; as a rule, active = well fitted inhibition curve with a large enough effect; inconclusive = small, poorly fitted or top-dose-only effect; inactive = flat fitted curve, though single readings scatter.
Pick one and only one: Yes (active), No (inactive)

Please review the entries below; each comes with its answer.
Could you kindly confirm the outcome this assay logged for CCCNC1=C(N(C(C)=O)c2cccc(F)c2)C(=O)c2ccccc2C1=O ?
Yes

Could you kindly confirm the outcome this assay logged for CCCCN(C(=O)Nc1ccc(Cl)cc1)C1CCN(C(C)=O)CC1 ?
No

Could you kindly confirm the outcome this assay logged for O=C(N/N=C/c1cc(Cl)ccc1O)C(=O)Nc1ccccc1OC(F)(F)C(F)F ?
Yes

Next:
Could you kindly confirm the outcome this assay logged for CCCSc1cc(N2CCN(C)CC2)nc(-c2ccc(OC)cc2)n1 ?
No

Could you kindly confirm the outcome this assay logged for COc1ccc(-c2nc(NC(=O)c3n[nH]c(=O)c4ccccc34)sc2C)cc1 ?
Yes

Could you kindly confirm the outcome this assay logged for CNC1=C(N(C(C)=O)c2ccc(Br)cc2)C(=O)c2ccccc2C1=O ?
Yes

Could you kindly confirm the outcome this assay logged for O=C1C(=Cc2cccs2)C(=O)c2ccccc21 ?
No

Could you kindly confirm the outcome this assay logged for C=CCNC(=S)N/N=C(\C)c1ccccn1 ?
Yes

Could you kindly confirm the outcome this assay logged for O=C(NCc1ccco1)C1CCN(Cc2ccc(F)cc2)CC1 ?
No

Could you kindly confirm the outcome this assay logged for COc1ccc(-c2csc(NC(=O)c3ccc(OCC(=O)N4CCOCC4)c(OC)c3)n2)cc1 ?
No

Could you kindly confirm the outcome this assay logged for Cc1c(C#N)c(N)nc2c3c(sc12)NC(=O)CC3c1ccc(F)cc1 (stereo unspecified) ?
No
